Assignment: determine reported pEC50 for the given compounds.
- TARGET_DESC: kappa opioid receptor (Homo sapiens)
- Construct: grown in complete Ham's F-12 medium
- PROTOCOL_TEXT: Invitro KOR agonistic activity, cAMP based functional assay
- Assay type: cell-based
Scale for pEC50: -log10 of concentration given in mol/L; no unit attached.

// field: pEC50; key: CN(C(=O)COc1ccc(NS(=O)(=O)N(C)C)c2c1CCCN2)[C@H](CN1CC[C@H](O)C1)c1ccccc1 ; value = 10.89

// field: pEC50; key: COCC(=O)Nc1ccc(OCC(=O)N(C)[C@H](CN2CC[C@H](O)C2)c2ccccc2)c2cccnc12 ; value = 10.22

// field: pEC50; key: CN(C(=O)COc1ccc(NS(C)(=O)=O)c2ncccc12)[C@H](CN1CC[C@H](O)C1)c1ccccc1 ; value = 10.89

// field: pEC50; key: CN(C(=O)COc1cccc2c1N(S(C)(=O)=O)CCC2)[C@H](CN1CC[C@H](O)C1)c1ccccc1 ; value = 11.30

// field: pEC50; key: CN1CCCc2cccc(OCC(=O)N(C)[C@H](CN3CC[C@H](O)C3)c3ccccc3)c21 ; value = 9.04

// field: pEC50; key: CN(C(=O)COc1cccc2c1NCC2)[C@H](CN1CC[C@H](O)C1)c1ccccc1 ; value = 9.96

---

- TARGET_DESC: kappa opioid receptor (Mus musculus)
- Construct: from tissue; host or cells: mouse vas deferens (male Swiss Albino mice)
- Sequence (P33534 whole entry): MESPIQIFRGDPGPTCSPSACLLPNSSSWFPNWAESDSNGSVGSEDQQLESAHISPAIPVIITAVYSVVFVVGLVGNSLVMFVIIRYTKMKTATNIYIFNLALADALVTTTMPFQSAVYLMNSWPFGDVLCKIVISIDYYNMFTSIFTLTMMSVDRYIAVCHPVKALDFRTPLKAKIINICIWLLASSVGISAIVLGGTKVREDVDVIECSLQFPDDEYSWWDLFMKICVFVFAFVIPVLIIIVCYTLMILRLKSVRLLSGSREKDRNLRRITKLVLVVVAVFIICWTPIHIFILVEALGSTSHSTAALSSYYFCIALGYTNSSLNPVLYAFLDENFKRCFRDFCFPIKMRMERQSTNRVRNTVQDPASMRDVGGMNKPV
- PROTOCOL_TEXT: Ex-vivo KOR agonistic activity, electrically stimulated mouse vas deferens (MVD) model
- CONDITION_NOTES: electrically stimulated mouse vas deferens preparation, cumulative dosing; read-out: Ex-vivo IC50
QUANTITY_NAME: pIC50
Scale for pIC50: -log10 of concentration given in mol/L; no unit attached.

Form field pIC50 for item CN(C(=O)COc1ccc(NS(C)(=O)=O)c2ncccc12)[C@H](CN1CC[C@H](O)C1)c1cccc(OCC(=O)O)c1 on kappa opioid receptor (Mus musculus): 7.80

Form field pIC50 for item CN(C(=O)COc1ccc2c3c1CCCN3S(=O)(=O)N2)[C@H](CN1CC[C@H](O)C1)c1ccccc1 on kappa opioid receptor (Mus musculus): 5.03

---

- TARGET_DESC: kappa opioid receptor (Homo sapiens)
- Construct: grown in complete Ham's F-12 medium
- PROTOCOL_TEXT: Invitro KOR agonistic activity, cAMP based functional assay
- Format: cell-based
- CONDITION_NOTES: cAMP direct ELISA, forskolin 20 μM, agonist 20 minutes; read-out: In-vitro EC50
QUANTITY_NAME: pEC50
Scale for pEC50: -log10 of concentration given in mol/L; no unit attached.

// field: pEC50; key: CN(C(=O)COc1ccc(NS(C)(=O)=O)c2ncccc12)[C@H](CN1CC[C@H](O)C1)c1cccc(OCC(=O)O)c1 [Compound 51] ; value = 9.96

---

- TARGET_DESC: kappa opioid receptor (Homo sapiens, UniProt P41145)
- Construct: grown in complete Ham's F-12 medium
- Sequence (P41145 whole entry): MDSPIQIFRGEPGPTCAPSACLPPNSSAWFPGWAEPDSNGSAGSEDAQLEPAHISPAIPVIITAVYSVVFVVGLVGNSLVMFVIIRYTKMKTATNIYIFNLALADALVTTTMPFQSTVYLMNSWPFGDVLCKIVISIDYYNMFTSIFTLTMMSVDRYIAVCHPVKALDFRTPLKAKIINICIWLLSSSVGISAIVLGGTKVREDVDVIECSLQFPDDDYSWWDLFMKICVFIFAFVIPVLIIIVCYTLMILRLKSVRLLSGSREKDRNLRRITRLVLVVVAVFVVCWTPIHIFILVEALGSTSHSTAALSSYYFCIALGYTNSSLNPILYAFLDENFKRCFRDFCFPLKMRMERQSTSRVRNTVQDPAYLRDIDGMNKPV
- PROTOCOL_TEXT: Invitro KOR agonistic activity, cAMP based functional assay
- Assay type: cell-based
QUANTITY_NAME: pEC50
Scale for pEC50: -log10 of concentration given in mol/L; no unit attached.

// field: pEC50; key: CN(C(=O)COc1ccc(NS(C)(=O)=O)c2ncccc12)[C@H](CN1CC[C@H](O)C1)c1cccc(F)c1 [Compound 52] ; value = 9.74

// field: pEC50; key: CCN(CC)S(=O)(=O)Nc1ccc(OCC(=O)N(C)[C@H](CN2CC[C@H](O)C2)c2ccccc2)c2cccnc12 [Compound 25] ; value = 11.52

// field: pEC50; key: CN(C(=O)COc1ncc(NS(C)(=O)=O)c2ccccc12)[C@H](CN1CC[C@H](O)C1)c1ccccc1 [Compound 10] ; value = 10.05

// field: pEC50; key: CN(C(=O)COc1ccc(NS(=O)(=O)CCl)c2ncccc12)[C@H](CN1CC[C@H](O)C1)c1ccccc1 [Compound 26] ; value = 10.92

All figures here come from patent US20170007610A1.
